# Tested on: HEK293T
# ASSAY OVERVIEW: qHTS assay to identify novel small-molecules to repurpose for Merkel cell carcinoma treatment (AID 1296009); also: nearly all actives have a fitted effect of over 60% in size
# EXPERIMENTAL SETUP: MCC and control cell lines, CellTiter-Glo viability, 72 h; at 44.8 µM (top of the series) unless noted
Results filed as inconclusive are left out. Activity calls are given as the source filed them. Calls follow the shape of the dose curve; as a rule, active = well fitted inhibition curve with a large enough effect; inconclusive = small, poorly fitted or top-dose-only effect; inactive = flat fitted curve, though single readings scatter.
OBSERVABLE: outcome

| COMPOUND | RESULT |
| --- | --- |
| CC1CC2OC3(OC2C(C)(C)O)C1C1(C)CCC24CC25CCC(O[C@@H]2OC[C@@H](O)[C@H](O)[C@H]2O)C(C)(C)C5CC=C4C1(C)C3O (stereo partly drawn) | inactive [at 17.4 µM] |
| CN(C)CCn1cc(S(=O)(=O)c2cccc(F)c2)c2cccnc21 | inactive |
| C[C@@H]1CCC2C(C)(C)[C@H](O)CC[C@]2(C)[C@@]12Cc1c(O)cc3c(c1O2)CN([C@@H](CCC(=O)O)C(=O)O)C3=O (stereo partly drawn) | inactive [at 17.4 µM] |
| COC(=O)CC(O)CC(O)/C=C/c1c(C)ccc2c1C(O)CC(C)C2 (stereo not drawn) | inactive |
| C/C(=C\CCC(C)CCO)C(=O)OC1(C)CCC2C(C(=O)O)=COC(OC3OC(CO)C(O)C(O)C3O)C21 (stereo not drawn) | inactive [at 17.4 µM] |
| C=CC(C)(C)c1[nH]c2cc3c(cc2c1CC1NC(=O)C2CCCN2C1=O)C=CC(C)(C)O3 (stereo not drawn) | inactive [at 17.4 µM] |
| C=C1CCC2C(C)(COC(C)=O)CCCC2(C)C1CCC(C)CC(=O)O (stereo not drawn) | inactive |
| O=C(CO)[C@@H](O)[C@H](O[C@@H]1O[C@H](CO)[C@H](O)[C@H](O)[C@H]1O)[C@H](O)CO | inactive |
| C[C@@]1(O)[C@H](O)[C@@H](CO)O[C@H]1n1ccc(N)nc1=O | inactive |
| CC1CCCCN1S(=O)(=O)c1ccc(N2CCCC2=O)cc1 (stereo not drawn) | inactive |
| CCCCOC(=O)NC(=O)C1c2ccccc2Oc2ccccc21 | inactive |
| CCNC(=O)Nc1ncc(-c2cc(-c3c(C)cc(OC)cc3C)nc(-c3cnccn3)n2)s1 | inactive |

----------
# Tested on: Tov112D
# ASSAY OVERVIEW: Primary qHTS to identify gynecologic anti-cancer compounds using libraries of approved drugs and bioactive compounds (AID 1345084); also: % is scaled to controls: 0 for no effect and ±100 for the full control effect; nearly all actives have a fitted effect of over 55% in size
# EXPERIMENTAL SETUP: Gynecologic cancer cell panel viability, ATPlite luminescence, 48 h; series mostly up to 57.5 µM
Results filed as inconclusive are left out. Calls of active or inactive are those of the source. Calls follow the shape of the dose curve; as a rule, active = well fitted cell-killing curve with a large enough effect; inconclusive = small, poorly fitted or top-dose-only effect, or effect the other way; inactive = flat fitted curve, though single readings scatter. *1 amine or outer side, *2 acyl side, *3 side chain or, on linkers, in order; H or OH if unused. Where a SMILES comes first, the peptide text is derived from it. [ ]: non-standard residue; d: D form. X4 = CC(C)=CCc1cc(C(O)C(N[*:1])C(=O)[*:2])ccc1O

| COMPOUND | activity change, negative = cytotoxicity |
| --- | --- |
| CC1(C)CCC2(C(=O)OC3OC(CO)C(O)C(O)C3O)CCC3(C)C(=CCC4C5(C)CCC(OC6OC(C(=O)O)C(OC7OC(CO)C(O)C(O)C7O)C(OC7OC(CO)C(O)C(O)C7O)C6O)C(C)(C)C5CCC43C)C2C1 (stereo unspecified) | 6% [at 11.6 µM] (inactive) |
| C[C@@H]1O[C@@H](O[C@H]2[C@H](OC(=O)[C@]34CCC(C)(C)C[C@H]3C3=CCC5[C@@]6(C)C[C@H](O)[C@H](O[C@@H]7O[C@H](CO)[C@@H](O[C@H]8OC[C@](O)(CO)[C@H]8O)[C@H](O)[C@H]7O)[C@@](C)(CO)C6[C@H](O)C[C@@]5(C)[C@]3(C)C[C@H]4O)OC[C@H](O)[C@@H]2O)[C@H](O)[C@H](O)[C@H]1O[C@@H]1OC[C@@H](O)[C@H](O[C@@H]2OC[C@](O)(CO)[C@H]2O)[C@H]1O (stereo partly specified) | -0.812% [at 6.55 µM] (inactive) |
| CC(C)=CCc1cc(C(O)C2NC(=O)CNC(=O)C(Cc3c[nH]c4ccccc34)NC(=O)C3CCCN3C(=O)CNC(=O)C(C(C)C)NC(=O)CNC2=O)ccc1O (stereo unspecified) (cyclo(G[X4]GVGPW); configuration not given here) | -6.73% [at 11.6 µM] (inactive) |
| C=C(C)C1CCC2(C(=O)O[C@@H]3O[C@H](CO[C@@H]4O[C@H](CO)[C@@H](O)[C@H](O)[C@H]4O)[C@@H](O)[C@H](O[C@@H]4O[C@@H](C)[C@H](O)[C@@H](O)[C@H]4O)[C@H]3O)CCC3(C(=O)O)C(CCC4C5(C)CCC(O)C(C)(C)C5CCC43C)C12 (stereo partly specified) | 11.4% [at 11.6 µM] (inactive) |
| C[C@@H]1O[C@@H](O[C@H]2[C@H](O[C@H]3[C@H](O)[C@@H](C(=O)O)O[C@@H](O[C@H]4CC[C@@]5(C)C(CC[C@]6(C)C5CC[C@]57OC[C@@]8(CCC(C)(C)CC85)[C@H](O)C[C@]76C)C4(C)C)[C@@H]3O[C@@H]3O[C@H](CO)[C@@H](O[C@@H]4OC[C@@H](O)[C@H](O)[C@H]4O)[C@H](O)[C@H]3O)O[C@H](CO)[C@H](O)[C@@H]2O)[C@H](O)[C@H](O)[C@H]1O (stereo partly specified) | 10.2% [at 6.55 µM] (inactive) |
| C[C@@H]1O[C@@H](O[C@H]2[C@H](OC(=O)[C@]34CCC(C)(C)C[C@H]3C3=CCC5[C@@]6(C)C[C@H](O)[C@H](O[C@@H]7O[C@H](CO)[C@@H](O)[C@H](O)[C@H]7O)[C@@](C)(CO)C6[C@H](O)C[C@@]5(C)[C@]3(C)C[C@H]4O)OC[C@H](O)[C@@H]2O)[C@H](O)[C@H](O)[C@H]1O[C@@H]1OC[C@@H](O)[C@H](O[C@H]2OC[C@](O)(CO)[C@H]2O)[C@H]1O (stereo partly specified) | 8.3% [at 6.55 µM] (inactive) |

----------
# Tested on: Zika virus NS2B-NS3 protease (unlinked complex)
# ASSAY OVERVIEW: Primary screen GU Rhodamine qHTS for Zika virus inhibitors: Unlinked NS2B-NS3 protease assay (AID 1347159); also: nearly all actives have a fitted effect of over 60% in size
# EXPERIMENTAL SETUP: Recombinant ZIKV NS2B-NS3 protease, Rhodamine110 substrate fluorescence; series mostly up to 107 µM
Results filed as inconclusive are left out. The source made the active and inactive calls. Calls follow the shape of the dose curve; as a rule, active = well fitted inhibition curve with a large enough effect; inconclusive = small, poorly fitted or top-dose-only effect; inactive = no such curve, though single readings can be large or run the other way.
Outcomes: active, inactive

| MOLECULE | TARGET OR TEST SYSTEM | GROUP |
| --- | --- | --- |
| C[C@@H]1C(=O)O[C@H]2C[C@]34[C@H]5C[C@@H](C(C)(C)C)[C@]36[C@@H](OC(=O)[C@H]6O)O[C@]4(C(=O)O5)[C@]21O | Zika virus NS2B-NS3 protease (unlinked complex) | inactive |
| CN(C)C/C=C/C(=O)Nc1cccc(C(=O)Nc2ccc(Nc3nccc(-c4cccnc4)n3)cc2)c1 | Zika virus NS2B-NS3 protease (unlinked complex) | active |
| COC(=O)CCSCc1ccc(-c2onc(C)c2NC(=O)OC(C)c2ccccc2Cl)cc1 (stereo not given) | Zika virus NS2B-NS3 protease (unlinked complex) | inactive |
| CC(=O)O[C@@H]1C[C@@H](OC(C)=O)C(C)(C)/C=C/[C@H](C)[C@H](OC(C)=O)[C@@]2(O)C[C@H](C)[C@H](OC(=O)c3ccccc3)[C@@H]2/C=C/1C | Zika virus NS2B-NS3 protease (unlinked complex) | inactive |
| Cc1ccc(NC(=O)Nc2cc(C(F)(F)F)ccc2F)cc1Nc1ccc2c(c1)NC(=O)/C2=C\c1ccc[nH]1 | Zika virus NS2B-NS3 protease (unlinked complex) | active |
| C=C1CCCC2(C)CC3(OC)OC(=O)C(C)=C3CC12 (stereo not given) | Zika virus NS2B-NS3 protease (unlinked complex) | inactive |
| CC1(C)CCC2(C(=O)OC3OCC(O)C(O)C3O)CCC3(C)C(=CCC4C5(C)CC(O)C(OC6OC(COC7OCC(O)C(O)C7O)C(O)C(O)C6O)C(C)(C)C5CCC43C)C2C1 (stereo not given) | Zika virus NS2B-NS3 protease (unlinked complex) | inactive |
| CC(c1ncncc1F)C(O)(Cn1cncn1)c1ccc(F)cc1F (stereo not given) | Zika virus NS2B-NS3 protease (unlinked complex) | inactive |
| N#C[C@@H]1CCCN1C(=O)CNC12CC3CC(CC(O)(C3)C1)C2 | Zika virus NS2B-NS3 protease (unlinked complex) | inactive |
| CC(Cc1cc2c(c(C(N)=O)c1)N(CCCO)CC2)NCCOc1ccccc1OCC(F)(F)F (stereo not given) | Zika virus NS2B-NS3 protease (unlinked complex) | inactive |
| COC(=O)N[C@H](C(=O)N1[C@@H]2CC[C@@H](C2)[C@H]1c1nc2ccc(-c3ccc4c(c3)C(F)(F)c3cc(-c5cnc([C@@H]6CCC7(CC7)N6C(=O)[C@@H](NC(=O)OC)C(C)C)[nH]5)ccc3-4)cc2[nH]1)C(C)C | Zika virus NS2B-NS3 protease (unlinked complex) | inactive |
| CC(O)c1cc(C(=O)N[C@@H](C)Cn2ccc(-c3ccc(C#N)c(Cl)c3)n2)n[nH]1 (stereo not given in full) | Zika virus NS2B-NS3 protease (unlinked complex) | inactive |
| CC(C)=CCC[C@](C)(O)[C@H]1CC[C@]2(C)[C@@H]1[C@H](O)CC1[C@@]3(C)CC[C@H](O)C(C)(C)C3[C@@H](O[C@@H]3O[C@H](CO)[C@@H](O)[C@H](O)[C@H]3O[C@@H]3OC[C@@H](O)[C@H](O)[C@H]3O)C[C@]12C (stereo not given in full) | Zika virus NS2B-NS3 protease (unlinked complex) | inactive |
| C[C@@H]1[C@H]2[C@H](O[C@@H]3O[C@H](CO)[C@@H](O)[C@H](O)[C@H]3O)OC=C(C(=O)O)[C@H]2C[C@@H]1O | Zika virus NS2B-NS3 protease (unlinked complex) | inactive |
| CC1(C)CC2=C3C=CC4C5(C)CCC(O)C(C)(C)C5CCC4(C)C3(C)CCC2(C)C(O)C1 (stereo not given) | Zika virus NS2B-NS3 protease (unlinked complex) | active |

Source listed as PubChem BioAssay (NCATS).
